B1: Osa-1-4 twister ribozyme (parent)
chain: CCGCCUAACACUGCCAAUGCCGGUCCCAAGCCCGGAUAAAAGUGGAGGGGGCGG

variants of: B1; assay: self-cleavage, relative activity (ratio to wild type); higher = more cleavage; co-transcriptional
Threshold rule: self-cleavage greater than or equal to 0.09 is Criterion met; below that, Criterion not met.

>>> df
   sequence_change           category
0         A36C A8C  Criterion not met
1        C33A G53C  Criterion not met
2        G23U G48U  Criterion not met
3        A40G C14U      Criterion met
4        G34U G53C  Criterion not met
5        A40C G13U  Criterion not met

Continue with the next variant.
Would you say G34A U18C shows self-cleavage at minimum 0.09? Criterion met
